Just for reference, PubChem BioAssay AID463173 is where these values come from.

What survival was measured for each of the following?
Test system: DeltatarO mutant
Assay Summary: S. aureus survival, RN4220 and DeltatarO strains – OD600, teichoic acid synthesis inhibitors, primary screen (AID 463173)
Particulars: S. aureus RN4220 wild type/DeltatarO growth, OD600, 18 h, stronger effect = lower value, screened at 18.75 µg/mL (by protocol)
The campaign covered roughly 52,000 compounds. About 4,300 (8.3%) were called active. The sample holds actives, similar compounds and a random draw of the others, so the mix is not that of the screen.

For the compound `COc1ccc(NC(=O)CN2C(=O)CSc3ccc(S(=O)(=O)N(C)C)cc32)cc1Cl` , the measured survival on DeltatarO mutant was 74% (inactive)

The value of survival recorded for CCOC(=O)C1CCCN(C(=O)c2ccccc2NC(=O)c2nsc3ccccc23)C1 (stereo not given) when tested on DeltatarO mutant reads 130% (inactive)

Lab entry: DeltatarO mutant assay, compound `O=C(NCc1ccccc1Cl)c1ccc(Nc2nc3ccccc3n3nnnc23)cc1` , survival = 84% (inactive)

// survival (DeltatarO mutant) for `Cn1cc(-c2cc3n(n2)CCC(=O)N3CCCC(=O)NCc2ccccc2Cl)c2ccccc21` = 109% (inactive)

survival for DeltatarO mutant with input CCOC(=O)CC(NC(=O)CCc1c(C)nc2ncnn2c1C)c1ccc(OC(C)C)cc1 (stereo not given) equals 114% (inactive)

---

System: DeltatarO mutant
Assay Summary: S. aureus survival, RN4220 and DeltatarO strains – OD600, teichoic acid synthesis inhibitors, primary screen (AID 463173)
Particulars: S. aureus RN4220 wild type/DeltatarO growth, OD600, 18 h, stronger effect = lower value, screened at 18.75 µg/mL (by protocol)
In all, about 52,000 compounds went through this assay and about 4,300 (8.3%) were called active. For the sample, actives were picked, then their nearest neighbours and some compounds at random.
Assay Metric: survival

Noted for CC(=O)N1c2ccccc2C(=O)C1N1CCN(c2ccccc2)CC1 (stereo unspecified) : its survival reads 85% (inactive)

Recorded result, CCOc1ccc(N2CC(c3nc4ccccc4n3CCCOc3ccccc3OC)CC2=O)cc1 (stereo unspecified) , survival: 81% (inactive)

Looking up `COc1ccc(C2=NC(C)(C)N(CC(=O)Nc3cccc(C)c3)C2=O)cc1` , I found its survival recorded as 76% (inactive)

Memo: CCOc1ccc(N2CC(c3nc4ccccc4n3CCOc3ccc(OC)cc3)CC2=O)cc1 (stereo unspecified) , reported survival: 47% (active)

Item: `O=C(NCCc1csc2nc(-c3ccc(F)cc3)nn12)c1cccc(C(F)(F)F)c1` | survival: 78% (inactive)

Documented survival of `Cc1cc(C)cc(NS(=O)(=O)c2ccc3[nH]cc(C(=O)N4CCCCCC4)c(=O)c3c2)c1` : 85% (inactive)

`CC(=O)N1CCC(N(Cc2ccc(C)o2)C(=O)Nc2cccc(C(F)(F)F)c2)CC1` has a reported survival of 91% (inactive)

# compound `CCOC(=O)c1ccccc1NC(=O)c1cc2ccc3cccnc3c2[nH]1` ; its survival = 117% (inactive)

Please fill in: survival reported for `O=C(CCCCn1c(=O)c2ccccc2n(Cc2ccccc2Cl)c1=O)NCc1ccc2c(c1)OCO2` = 78% (inactive)

# survival of `COC(=O)c1cc(S(=O)(=O)N2CCN(c3cc(Cl)ccc3C)CC2)c[nH]1` = 12% (active)

Note to self: survival recorded for `CCN1CCN(CCCNC(=O)c2ccc3c(c2)sc2nc(-c4ccc(OC)cc4)cn23)CC1` was 72% (inactive)

# survival of `C/C(=N\NC(N)N)C1CCCCCCCCCCC1` = 0% (active)

Data point: `Nc1cnc2cccc3c2c1-c1ccccc1C3=O` ; survival = 86% (inactive)

Sure, the documented survival for `Cc1cc(C)cc(NS(=O)(=O)c2ccc3[nH]cc(C(=O)N4CCCCC4)c(=O)c3c2)c1` is 83% (inactive)

response.value for O=C1CC(c2nc3ccccc3n2CCCOc2ccccc2)CN1c1ccc(F)cc1 (stereo unspecified) (field: survival) = 97% (inactive)

Lab book: survival of `Cc1cccc(NC(=O)c2sc3nc(N4CCOCC4)c4c(c3c2N)CC(C)(C)OC4)c1` noted as 91% (inactive)

// CC(C(=O)Nc1cccc(N)c1)n1nnc2ccccc21 (stereo unspecified) : survival value = 65% (inactive)

Reported survival ( `CCOC(=O)c1c(-c2cccs2)csc1NC(=O)C(F)(F)F` ) = 70% (inactive)

What the record says about `CC(C)c1ccc(NS(=O)(=O)c2ccc3[nH]cc(C(=O)NC4CCCC4)c(=O)c3c2)cc1` : survival is 4% (active)

// survival value for `CCCN1CCN(CCCNC(=O)c2ccc3c(c2)sc2nc(-c4ccc(C)cc4)cn23)CC1` : 18% (active)

Lab book: survival of `COCCCNC(=O)c1cc(-c2ccc(OC)cc2)nc2n[nH]c(-c3ccc(Cl)cc3)c12` noted as 73% (inactive)

---

System: DeltatarO mutant
Assay Summary: S. aureus survival, RN4220 and DeltatarO strains – OD600, teichoic acid synthesis inhibitors, primary screen (AID 463173)
Particulars: S. aureus RN4220 wild type/DeltatarO growth, OD600, 18 h, screened at 18.75 µg/mL (by protocol)
In all, about 52,000 compounds went through this assay and about 4,300 (8.3%) were called active. Rule as the data show it: active = survival mostly below about 52% (no sharp cut-off); inactive = mostly above about 56%. The entries come from a sample that favours actives as a whole.
Choose one outcome from this list and give only that: 1 (yes) (active), 0 (no) (inactive)

*Q* Hey, what did the test say about `Cn1c(=O)oc2cc(S(=O)(=O)N3CCC(C(=O)NCc4ccccc4Cl)CC3)ccc21` ?
*A* 0 (no)

*Q* // outcome(item) with item = `Clc1cccc(-c2noc3ncnc(NC4CCCCC4)c23)c1`
*A* 0 (no)

*Q* GET /call?item= `Cc1ccc(CNS(=O)(=O)c2ccc(C(=O)N(C)C)s2)cc1` returns the recorded outcome of this test.
*A* 1 (yes)

*Q* Outcome logged for `CCc1ccccc1NC(=O)Cn1nc2c3cc(F)ccc3n(Cc3cccc(C)c3)cc-2c1=O` in this assay:
*A* 0 (no)

*Q* Test call, this molecule: COc1ccc(C2CC3(CC(C)(C)NC(=O)N3)Oc3cc(O)ccc32)cc1 (stereo not given)
*A* 0 (no)

*Q* Fill in: this test's call for `CN(c1ncnc2c1c(-c1ccccc1)cn2-c1cccc(Cl)c1)C1CCCCC1` is ___
*A* 0 (no)

*Q* Dear colleague, could you share the recorded outcome for `Cc1ccc(Cn2ccnc2SCC(=O)Nc2ccc3c(c2)OCO3)cc1` when you have a moment?
*A* 0 (no)

*Q* Tell me the recorded outcome of this test for `CCc1nn2c(=O)cc(COC(=O)c3ccccc3NC(=O)COc3ccccc3C)nc2s1` .
*A* 0 (no)

*Q* Could you please tell me the result logged for `O=S(=O)(Nc1ccc(-c2ccc(N3CCCC3)nn2)cc1)c1ccccc1Cl` in this assay?
*A* 0 (no)

*Q* Could you kindly confirm the outcome this assay logged for `COc1ccc(CNS(=O)(=O)c2ccc(C(=O)N(C)C)s2)cc1` ?
*A* 0 (no)

---

Tested on: DeltatarO mutant
Assay Summary: S. aureus survival, RN4220 and DeltatarO strains – OD600, teichoic acid synthesis inhibitors, primary screen (AID 463173)
Particulars: S. aureus RN4220 wild type/DeltatarO growth, OD600, 18 h, stronger effect = lower value, screened at 18.75 µg/mL (by protocol)
The whole screen tested about 52,000 compounds, of which about 4,300 (8.3%) were called active. The entries come from a sample that favours actives as a whole.
Exercise: state measured survival for each of the compounds provided.
# output: bare number, implied unit %

The measured survival that `Cc1ccc(NC(=O)CCn2nc(-c3ccccc3)c3ccccc3c2=O)c(C)c1` showed for DeltatarO mutant is 52

The measured survival that Cc1ccc2oc3c(c(=O)c2c1)C(c1ccc(OCC(N)=O)cc1)N(Cc1ccc2c(c1)OCO2)C3=O (stereo not given) showed for DeltatarO mutant is 93

Noted survival for `CCc1ccc(CNC(=O)c2c3c(nc4ccccc24)C(=O)N(C2CCCCC2)C3)cc1` , tested on DeltatarO mutant: 37

Sample `COC(=O)c1ccc(Cl)cc1NC(=O)N1CCCn2nc(C)cc21` , system: DeltatarO mutant. Its survival is 94

Lab entry: DeltatarO mutant assay, compound `Cc1ccc(NC(=O)Cn2ncn3c(cc4ccccc43)c2=O)cc1C` , survival = 73

# survival measured on DeltatarO mutant for item `COc1ccc(C)cc1NC(=O)N1CCCn2nc(C)cc21` = 73

Measured survival for this entry `COc1ccc(NC(=O)CCCc2nnc3n(C(C)C)c(=O)c4sccc4n23)cc1Cl` on DeltatarO mutant: 93

So the reported survival for `COc1cc(OC)c(NC(=O)N2CCCn3nc(C)cc32)cc1Cl` , on DeltatarO mutant, turned out to be 47

// survival (DeltatarO mutant) for `O=C(CCn1nc(-c2ccccc2)c2ccccc2c1=O)Nc1ccccc1` = 69

The value of survival recorded for `CC(C)OCCCNC(=O)c1c2c(nc3ccccc13)C(=O)N(C1CCCCC1)C2` when tested on DeltatarO mutant reads 25
